All figures here come from patent US20200407445A1.

# maps each entry to its pKd
Molecular target: T1, Human TIGIT-His (human, UniProt Q495A1 22-141, biotinylated in the ForteBio Fab assay)
T1 construct: bought (Creative Biomart); also called Biotinylated Human TIGIT HIS; TIGIT-His monomer; not shown: His tag
T1 sequence (looked up): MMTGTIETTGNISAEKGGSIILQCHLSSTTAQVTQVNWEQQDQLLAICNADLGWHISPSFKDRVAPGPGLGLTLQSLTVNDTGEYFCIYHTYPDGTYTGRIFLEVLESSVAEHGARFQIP
Assay: MSD-SET, monovalent (Fab or mAb titrated, not said which)
Protocol: Briefly, solution equilibrium titrations (SET) were performed in PBS+0.1% IgG-Free BSA (PBSF) with antigen (TIGIT-His monomer) held constant at 10-100 pM and incubated with 3- to 5-fold serial dilutions of Fab or mAbs starting at 10 pM-10 nM. Antibodies (20 nM in PBS) were coated onto standard bind MSD-ECL plates overnight at 4° C. or at room temperature for 30 min. […] Antigen captured on a plate was detected with 250 ng/mL sulfotag-labeled streptavidin in PBSF by incubation on the plate for 3 min. […]
Entry type: numeric. Quantity: pKd, the -log10 of concentration in molar units.

Example binders with recorded pKd:
• anti-TIGIT antibody clone 29520 (IgG) (antibody, V domains shown) VH: QVQLVESGGGLVQPGRSLRLSCAASGFTFRDYAMHWVRQAPGKGLEWVSGITWNSGLIGYADSVKGRFTISRDNAKNSLYLQMNSLRAEDTALYYCAKPVPRLRGLDVWGQGTMVTVSS VL: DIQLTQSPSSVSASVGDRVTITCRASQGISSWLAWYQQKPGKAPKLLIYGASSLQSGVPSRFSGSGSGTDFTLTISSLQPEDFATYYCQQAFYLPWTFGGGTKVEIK = 9.68
• anti-TIGIT antibody clone 29499 (IgG) (antibody, V domains shown) VH: QLQLQESGPGLVKPSETLSLTCTVSGGSISSSRYYWAWIRQPPGKGLEWIGSIGTSGSTYYNPSLKSRVTISVDTSKNQFSLKLSSVTATDTAVYYCAIEGANFRDFGYVAFDIWGQGTMVTVSS VL: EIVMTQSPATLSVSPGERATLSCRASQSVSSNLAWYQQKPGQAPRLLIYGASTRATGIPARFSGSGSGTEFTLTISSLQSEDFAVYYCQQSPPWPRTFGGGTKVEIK = 10.72

Kindly review the next binder as well.
// lookup pKd for anti-TIGIT antibody clone 29513 (IgG) (antibody, V domains shown) VH: QVQLVQSGAEVKKPGSSVKVSCKASGGTFQNYAISWVRQAPGQGLEWMGVIVPIFGTANYAQKFQGRVTVTADESTSTAYMELSSLRSEDTAVYYCARLHLGQKAYYGMDVWGQGTTVTVSS VL: DIQMTQSPSSLSASVGDRVTITCRASQSISSYLNWYQQKPGKAPKLLIYAASSLQSGVPSRFSGSGSGTDFTLTISSLQPEDFATYYCQQRYVFPPTFGGGTKVEIK 10.60
